Tested on: T-47D breast
assaySummary: NCI tumour cell line growth inhibition, 48 h
outcomeMeasure: TGI

See these solved cases before continuing.
• O=Nc1c(-c2c(O)[nH]c3ncccc23)[nH]c2ccccc12 = > 100 µM
• Nc1ccc(Nc2cc(=O)[nH]c(=O)[nH]2)cc1Cl = > 100 µM
• CCOC(=O)Cn1nnc2ccc(Nc3nc4ccccc4nc3-c3ccccc3)cc21 = > 100 µM
• CC(C)(C)NC(=O)CCC1C(C(=O)NC(C)(C)C)C2(Cl)C(Cl)=C(Cl)C1(Cl)C2(Cl)Cl (configuration not stated) = > 100 µM
• C[N+](C)(C)c1ncnc2c1ncn2C1CCCO1 (configuration not stated) = > 100 µM
• O=C(c1ccco1)N(C(=O)N1CCN(c2ccccc2)CC1)S(=O)(=O)c1ccccc1 = 61 µM

Next up:
Task: Lab note: record TGI of CCN(CC)C1Oc2cc3c(cc2C(c2cccc(OC)c2OC)C1C)OCO3 (configuration not stated) tested on T-47D breast.
Result: 28.5 µM

====

TGI values, listed per item
Tested on: HCT-15 colon
assaySummary: NCI tumour cell line growth inhibition, 48 h
Just the number in µM, nothing appended.

See these solved cases before continuing.
• C[CH2][Hg][S]c1ccccc1C(=O)O = 2.52
• N#CCN1C(=O)c2cc([N+](=O)[O-])cc3cc([N+](=O)[O-])cc(c23)C1=O = 20.3
• Oc1cc(-n2cccn2)c(O)cc1-n1cccn1 = 51.6
• COC(=O)c1cc(-c2ccc(OC)c(OC)c2)[nH]c1N/N=C/c1c(Cl)cccc1Cl = 24
• C/C(=N\O)c1cccc(Nc2cc(-n3ccnc3)c3ccccc3n2)c1 = 22.6

Task: Lab note: record TGI of CN(CCCNC(=O)c1cc(-c2ccccc2)nc2ccccc12)CCCNC(=O)c1cc(-c2ccccc2)nc2ccccc12 tested on HCT-15 colon.
Result: 12.2

====

TGI values, listed per item
Test system: HS 578T breast
assaySummary: NCI tumour cell line growth inhibition, 48 h

See these solved cases before continuing.
* CC(=O)OCC1OC(OCCCOP(=S)(OCCC#N)OCC2OC(n3ccc(N)nc3=O)C(OC(=O)c3ccccc3)C2OC(=O)c2ccccc2)C(OC(C)=O)C(OC(C)=O)C1OC(C)=O (stereo not drawn) | > 100 µM
* CCCCNc1nc(NC2OCC(OC(C)=O)C(OC(C)=O)C2OC(C)=O)c(N=O)c(=O)n1C (stereo not drawn) | > 10 µM
* Clc1ccc(C2ON=C(c3ccccc3)N2C23CC4CC(CC(C4)C2)C3)cc1 (stereo not drawn) | > 10 µM

Task: Answer with the recorded TGI of COc1ccc(/C=C(/C)[N+](=O)[O-])cc1OC only.
Result: > 100 µM

Task: Answer with the recorded TGI of c1ccc(N=C2c3ccsc3C(=Nc3ccccc3)c3ccsc32)cc1 only.
Result: 6.04 µM

Task: Answer with the recorded TGI of O=C1C(OCCOc2ccccc2)=C(OCCOc2ccccc2)C(=O)c2ccccc21 only.
Result: > 100 µM

Task: Answer with the recorded TGI of C[C@@H]1O[C@@H](O[C@@H]2[C@@H](O)[C@H](OCCc3ccc(O)c(O)c3)O[C@H](CO)[C@H]2OC(=O)/C=C/c2ccc(O)c(O)c2)[C@H](O)[C@H](OC2OC[C@](O)(CO)[C@H]2O)[C@H]1O (stereo partly drawn) only.
Result: > 100 µM

Task: Answer with the recorded TGI of Cc1ccc(C2C3Cc4ccccc4C3=NN2c2ccc(S(=O)(=O)/N=c3\scc(-c4ccccc4)n3-c3ccccc3)cc2)cc1 (stereo not drawn) only.
Result: 44.8 µM

====

Tested on: U251 CNS
assaySummary: NCI tumour cell line growth inhibition, 48 h
outcomeMeasure: TGI

See these solved cases before continuing.
- O=C(O)c1ccccc1N=Nc1c(O)c(S(=O)(=O)O)cc2cc(S(=O)(=O)O)ccc12: > 100 µM
- COc1cc(/C=C/c2ccc3c(Br)cc(Br)c(O)c3n2)ccc1O: 10.9 µM
- CN=C(Nc1cccc(C(F)(F)F)c1)SCc1ccc(N=C=S)cc1: 29.8 µM
- CC(C)(CCC(C)(C)N1OC1c1ccccc1)N1OC1c1ccccc1 (stereo unspecified): > 100 µM
- COc1cc(C2(C)SCCCS2)cc(OC)c1OC: > 100 µM

Next up:
Task: Lab note: record TGI of CCOc1ccc(NC(=O)CCc2nnc(SC)o2)cc1 tested on U251 CNS.
Result: > 100 µM

====

Test system: CCRF-CEM leukemia
assaySummary: NCI tumour cell line growth inhibition, 48 h
TGI values, listed per item

See these solved cases before continuing.
* O=Nc1c(-c2c(O)[nH]c3ncccc23)[nH]c2ccccc12 | > 100 µM
* Cc1cc2c(cc1C)[n+](=O)c(C(=O)c1ccccc1)c(C(F)(F)F)n2[O-] | 8.52 µM
* Nc1ccc(Nc2cc(=O)[nH]c(=O)[nH]2)cc1Cl | > 100 µM
* Cc1cnc2c(c1C)C(=O)c1ccccc1C2=O | > 100 µM
* CCc1c(C)nc2sc3c(N)ncnc3c2c1C | > 25 µM
* Nc1nc2c(C(=O)O)c3ccc([N+](=O)[O-])cc3c(=O)n2c2ccccc12 | > 100 µM
* O=C(Nc1ccccc1OC(=O)c1ccccc1)c1ccccc1 | > 100 µM
* COc1cc(O)c2c(=O)c(OC)c(-c3ccc(OC)c(OC)c3)oc2c1 | > 100 µM
* C[n+]1c2ccccc2nc2c(N)cc(N)cc21 | 48.3 µM
* O=C(NCCNCCO)c1cccc2ccc(-c3ccccc3)nc12 | 27.1 µM

Task: Lab note: record TGI of CC(C)(CCC(C)(C)N1OC1c1ccccc1)N1OC1c1ccccc1 (configuration not stated) tested on CCRF-CEM leukemia.
Result: 35 µM

Task: Lab note: record TGI of COc1cc(/C=C/c2ccc3c(Br)cc(Br)c(O)c3n2)ccc1O tested on CCRF-CEM leukemia.
Result: 3.03 µM

Task: Lab note: record TGI of CN(C)CCNC(=O)c1cccc2c(NC(CCC(N)=O)C(=O)O)c3ccccc3nc12 (configuration not stated) tested on CCRF-CEM leukemia.
Result: > 100 µM

Task: Lab note: record TGI of CCC(=O)Nc1ccc(N2C(=O)/C(=C/c3ccc(OC)cc3)N=C2c2ccccc2)cc1 tested on CCRF-CEM leukemia.
Result: > 50 µM

Task: Lab note: record TGI of Cc1ccc(NC(=O)C(=O)C(C(=O)/C=C/c2ccccc2)C2OC(=O)c3ccccc32)c(C)c1 (configuration not stated) tested on CCRF-CEM leukemia.
Result: > 100 µM

Task: Lab note: record TGI of COc1cc(Oc2nc3ccc(C(F)(F)F)cc3nc2-c2ccccc2)cc(OC)c1OC tested on CCRF-CEM leukemia.
Result: > 100 µM

Task: Lab note: record TGI of c1cc(N2CCN(c3ccc(C4=NCCCN4)cc3)CC2)ccc1C1=NCCCN1 tested on CCRF-CEM leukemia.
Result: > 100 µM

Task: Lab note: record TGI of COc1ccc(OC(=O)CC2Cc3cc(OC)c(OC)c(OC)c3-c3ccc(SC)c(=O)cc32)cc1 (configuration not stated) tested on CCRF-CEM leukemia.
Result: 10.1 µM

Task: Lab note: record TGI of O=[N+]([O-])c1ccc(C(O)(C#CCN2CCCC2)c2ccccc2)cc1 (configuration not stated) tested on CCRF-CEM leukemia.
Result: 57.5 µM

Task: Lab note: record TGI of COc1ccc(-c2cc(=O)c3c(O)cccc3o2)c(OC)c1OC tested on CCRF-CEM leukemia.
Result: > 100 µM

Task: Lab note: record TGI of C[N+](C)(C)c1ncnc2c1ncn2C1CCCO1 (configuration not stated) tested on CCRF-CEM leukemia.
Result: > 100 µM

Task: Lab note: record TGI of Cc1cc2c(c(C(N)=O)c1C)-c1cc(Cl)cc(Cl)c1C2=O tested on CCRF-CEM leukemia.
Result: > 100 µM

====

Test system: A549 NSCLC
assaySummary: NCI tumour cell line growth inhibition, 48 h
outcomeMeasure: TGI

See these solved cases before continuing.
- COc1cccc(C2c3cc4c(cc3OC3COC(=O)C32)OCO4)c1OC (stereo unspecified): > 100 µM
- c1ccc(N=C2c3ccsc3C(=Nc3ccccc3)c3ccsc32)cc1: 4.1 µM
- O=C(Cc1nc2ccccc2o1)C(=O)Nc1cccc(C(F)(F)F)c1: > 100 µM
- Cc1ccccc1C(=O)C1CCCCC1O (stereo unspecified): > 100 µM

Task: Lab note: record TGI of O=C1N[C@@H]2C(=C[C@H](O)[C@@H](O)[C@H]2O)c2cc3c(c(O)c21)OCO3 tested on A549 NSCLC.
Result: 0.306 µM

Task: Lab note: record TGI of Cc1ccccc1-n1c(N)c(-c2nc3ccccc3[nH]2)sc1=S tested on A549 NSCLC.
Result: 71.3 µM

Task: Lab note: record TGI of CCc1c(C)nc2sc3c(N)ncnc3c2c1C tested on A549 NSCLC.
Result: > 25 µM

Task: Lab note: record TGI of CC(C)(C)NC(=O)CCC1C(C(=O)NC(C)(C)C)C2(Cl)C(Cl)=C(Cl)C1(Cl)C2(Cl)Cl (stereo unspecified) tested on A549 NSCLC.
Result: > 100 µM

Cited source for all entries: PubChem BioAssay (NCI)
